Quick list: Population Apoptotic (%) per entry.
tested on: HEK-293T; assay: Multiplex assay against HEK293T; type: toxicity, cell-based; conditions: human, 24 h, 10 µM, compound concentration 10 uM, replicate 1

| molecule | Population Apoptotic (%) |
| --- | --- |
| O=C1N/C(=N/c2ccccc2F)S/C1=C\c1ccc(C(=O)O)cc1 | 51% |
| CCOc1cc(C(=O)N2CCC(N3CCN(C)CC3)CC2)ccc1Nc1ncc2c(n1)N(C1CCCC1)c1ccccc1C(=O)N2C | 91% |
| CCCS(=O)(=O)Nc1ccc(F)c(C(=O)c2c[nH]c3ncc(Cl)cc23)c1F [PLX-4720] | 15% |
| COc1cccc2cc(-c3nc([C@H]4CC[C@H](C(=O)O)CC4)n4ncnc(N)c34)[nH]c12 [OSI-027] | 12% |

###

system: HEK-293T; assay: Incucyte cell viability with HEK293T; assay type: toxicity, cell-based; conditions: human, 12 h, 10 µM, compound concentration 10 uM, replicate number 2, timepoint 12 hours; also: filed as whole numbers so only -1 and 0 and 1 occur

| molecule | Growth Rate |
| --- | --- |
| CC(C)(C)OC(=O)N1CCCC1CNC1CCC(c2cc(F)ccc2F)(S(=O)(=O)c2ccc(Cl)cc2)CC1 (centres undefined) | 0 |
| Nc1cc(F)ccc1NC(=O)/C=C/c1cnn(C/C=C/c2ccccc2)c1 | 1 |
| Cc1cn(-c2cc(NC(=O)c3ccc(C)c(Nc4nccc(-c5cccnc5)n4)c3)cc(C(F)(F)F)c2)cn1 | 0 |
| Cc1ccc(-c2cnc([C@@]3(O)CC[C@H](C(=O)O)C(C)(C)C3)s2)cc1Nc1cccc(C(F)(F)F)n1 | 0 |

###

system: HEK-293T; test: Incucyte cell viability with HEK293T; assay type: toxicity, cell-based; details: human, 0 h, 10 µM, compound concentration 10 uM, replicate number 1, timepoint 0 hours; also: filed as whole numbers so only -1 and 0 and 1 occur
reported.property: Growth Rate

| molecule | value.observed |
| --- | --- |
| C=CC(=O)N1CCC([C@@H]2CCNc3c(C(N)=O)c(-c4ccc(Oc5ccccc5)cc4)nn32)CC1 | 0 |
| CCN(CC)S(=O)(=O)Nc1cccc(-c2ccc3c(NC(=O)C4CC4)n[nH]c3c2)c1 | 0 |
| CCCCN(CCCC)C(=O)CN1C[C@H](c2cc(OC)c3c(c2)OCO3)[C@@H](C(=O)O)[C@@H]1CC(C)(C)CCC.Cc1ccc(S(=O)(=O)O)cc1 | 0 |
| CCCNS(=O)(=O)Nc1ncnc(OCCOc2ncc(Br)cn2)c1-c1ccc(Br)cc1 | 0 |
| O=C(Nc1nc2cccc(-c3ccc(CN4CCS(=O)(=O)CC4)cc3)n2n1)C1CC1 | 0 |
| O=C1NC(=O)C(c2cnc3ccccn23)=C1c1cn2c3c(cc(F)cc13)CN(C(=O)N1CCCCC1)CC2 | 0 |
| CCCn1c(=O)c2[nH]c(-c3cnn(Cc4cccc(C(F)(F)F)c4)c3)nc2n(CC)c1=O | 1 |
| O=C(Nc1ccc(-n2nc(-c3cccnc3)cc2C(F)(F)F)cn1)c1ccc(-c2ccccc2)c(F)c1 | 1 |
| CNC[C@H](O)c1cccc(O)c1 | 0 |
| O=C1NCN(c2ccccc2)C12CCN(CC1COc3ccccc3O1)CC2 (stereo unspecified) | 1 |
| Nc1cc(F)ccc1NC(=O)/C=C/c1cnn(C/C=C/c2ccccc2)c1 | 0 |
| CCN1CCN(Cc2ccc(Nc3ncc(F)c(-c4cc(F)c5nc(C)n(C(C)C)c5c4)n3)nc2)CC1.CS(=O)(=O)O | 0 |
| FC(F)(F)c1cccc(-c2noc(-c3cc(-c4ccccc4)c(C(F)(F)F)s3)n2)c1 | 1 |
| Cc1ccc(-c2ccc3c(ccc4sc5c(c43)NC[C@@H](C)NC5=O)n2)cn1 | 1 |
| Cc1cc([C@@H](C)Nc2cccc(-c3cc(C)c(C(=O)N[C@@H](C)C(=O)O)c(C)c3)c2)ccc1Cl | 1 |
| CCCc1c(OCCCOc2ccc(OCC(=O)O)cc2)ccc(C(C)=O)c1O | 1 |

###

Quick reference: Population Apoptotic (%) of the listed items.
tested on: Fibroblast; experiment: Multiplex assay against human fibroblast; type: toxicity, cell-based; details: 24 h, 1 µM, compound concentration 1 uM, replicate 2

| compound | Population Apoptotic (%) |
| --- | --- |
| NC(=O)c1cccc(-c2cc(Nc3ccc(OC(F)(F)F)cc3)ncn2)c1 | 50 |
| O=C(Cc1ccc(-c2ccc(OCCN3CCOCC3)cc2)cn1)NCc1ccccc1 [TIRBANIBULIN] | 61 |
| O=C(Nc1ccc(-n2nc(-c3cccnc3)cc2C(F)(F)F)cn1)c1ccc(-c2ccccc2)c(F)c1 [BI 2049] | 25 |
| COc1ccc(S(=O)(=O)N(CCO)c2ccccc2CN(C)C/C=C/c2ccc(Cl)cc2)cc1.O=P(O)(O)O | 100 |
| CNc1cc(Oc2cc(C(=O)Nc3cc(N4CCN(C)CC4)cc(C(F)(F)F)c3)ccc2C)ncn1 | 50 |
| COc1cccc2cc(-c3nc([C@H]4CC[C@H](C(=O)O)CC4)n4ncnc(N)c34)[nH]c12 [OSI-027] | 16 |

From: ChEMBL document CHEMBL4689842
